Molecular target: T1, soluble KDR extracellular domain (ECD) (Calbiochem) (human, UniProt P35968 20-764)
T1 construct: extracellular domain; Bought protein; also called KDR-ECD; VEGF Receptor 2 D1-7, Cat. #676490
T1 sequence (P35968 20-764): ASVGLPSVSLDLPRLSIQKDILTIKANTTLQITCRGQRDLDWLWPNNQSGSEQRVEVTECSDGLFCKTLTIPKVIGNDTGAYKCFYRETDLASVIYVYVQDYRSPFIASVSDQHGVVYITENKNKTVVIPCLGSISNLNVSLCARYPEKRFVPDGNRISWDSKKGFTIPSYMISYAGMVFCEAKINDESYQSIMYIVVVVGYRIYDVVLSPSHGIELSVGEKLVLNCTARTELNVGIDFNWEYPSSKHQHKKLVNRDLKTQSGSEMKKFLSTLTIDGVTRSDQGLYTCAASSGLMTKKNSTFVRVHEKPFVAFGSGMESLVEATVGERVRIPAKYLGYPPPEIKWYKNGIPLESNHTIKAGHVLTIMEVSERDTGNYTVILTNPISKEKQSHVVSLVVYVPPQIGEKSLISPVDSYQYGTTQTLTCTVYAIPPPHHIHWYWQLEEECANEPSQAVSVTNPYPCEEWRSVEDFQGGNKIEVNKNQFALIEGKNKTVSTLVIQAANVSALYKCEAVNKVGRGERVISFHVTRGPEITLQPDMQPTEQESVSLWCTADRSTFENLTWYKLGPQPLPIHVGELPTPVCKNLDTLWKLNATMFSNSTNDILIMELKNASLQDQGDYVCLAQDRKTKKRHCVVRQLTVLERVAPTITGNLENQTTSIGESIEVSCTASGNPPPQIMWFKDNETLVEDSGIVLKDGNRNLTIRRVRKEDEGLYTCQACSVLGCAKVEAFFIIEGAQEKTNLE
Test: High Antigen ELISA, KDR coat 500 ng/mL, supernatant 1:225
Experimental: ELISA plates were coated with a greater amount of KDR (at 500 ng/mL) in comparison with the Limited Antigen Quantitation assay described below. Sample containing antibody (Ab) was titrated on the KDR-coated ELISA plates and was incubated overnight at 4° C. to allow Ab binding to approach equilibrium. […] The high KDR concentration and the overnight incubation limited the effect of Ab affinity, allowing quantitation of the relative amount of KDR-specific Ab present in each sample.
READOUT TYPE: ELISA reading
Reply: number alone, nothing else.

Study these solved cases before continuing.
>  <BINDER>
21A1 (antibody, V domains shown, Fully human mAb from XenoMouse hybridoma, tested as hybridoma supernatant) VH: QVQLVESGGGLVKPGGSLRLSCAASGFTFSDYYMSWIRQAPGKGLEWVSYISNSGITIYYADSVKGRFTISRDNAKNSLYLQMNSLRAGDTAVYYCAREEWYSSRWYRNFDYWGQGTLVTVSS VL: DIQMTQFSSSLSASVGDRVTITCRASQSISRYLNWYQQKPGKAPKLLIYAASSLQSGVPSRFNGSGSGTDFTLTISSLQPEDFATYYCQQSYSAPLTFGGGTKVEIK

>  <READOUT TYPE>
ELISA reading

>  <RECORDED VALUE>
4.14

$$$$
>  <BINDER>
32G7 (antibody, V domains shown, Fully human mAb from XenoMouse hybridoma, tested as hybridoma supernatant) VH: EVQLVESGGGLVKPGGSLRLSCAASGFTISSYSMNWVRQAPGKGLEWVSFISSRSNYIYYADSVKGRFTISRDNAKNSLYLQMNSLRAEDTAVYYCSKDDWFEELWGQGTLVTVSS VL: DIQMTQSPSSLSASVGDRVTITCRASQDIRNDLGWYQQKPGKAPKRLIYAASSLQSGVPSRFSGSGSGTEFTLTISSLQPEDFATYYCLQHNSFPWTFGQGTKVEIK

>  <READOUT TYPE>
ELISA reading

>  <RECORDED VALUE>
0.96

$$$$

Incoming: Please look at this binder and report its ELISA reading: 21H6 (antibody, V domains shown, Fully human mAb from XenoMouse hybridoma, tested as hybridoma supernatant) VH: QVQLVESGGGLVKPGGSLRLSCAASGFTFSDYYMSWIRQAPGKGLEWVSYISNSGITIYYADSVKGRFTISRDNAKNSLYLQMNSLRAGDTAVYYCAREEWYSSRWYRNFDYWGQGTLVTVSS VL: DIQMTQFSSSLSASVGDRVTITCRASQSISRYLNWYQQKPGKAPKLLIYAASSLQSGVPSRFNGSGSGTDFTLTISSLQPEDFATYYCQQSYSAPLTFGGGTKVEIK
Outgoing: 5.57
